Source: ChEMBL document CHEMBL3603807

- study target: ALK tyrosine kinase receptor (Homo sapiens, UniProt Q9UM73)
- Sequence (Q9UM73 whole entry): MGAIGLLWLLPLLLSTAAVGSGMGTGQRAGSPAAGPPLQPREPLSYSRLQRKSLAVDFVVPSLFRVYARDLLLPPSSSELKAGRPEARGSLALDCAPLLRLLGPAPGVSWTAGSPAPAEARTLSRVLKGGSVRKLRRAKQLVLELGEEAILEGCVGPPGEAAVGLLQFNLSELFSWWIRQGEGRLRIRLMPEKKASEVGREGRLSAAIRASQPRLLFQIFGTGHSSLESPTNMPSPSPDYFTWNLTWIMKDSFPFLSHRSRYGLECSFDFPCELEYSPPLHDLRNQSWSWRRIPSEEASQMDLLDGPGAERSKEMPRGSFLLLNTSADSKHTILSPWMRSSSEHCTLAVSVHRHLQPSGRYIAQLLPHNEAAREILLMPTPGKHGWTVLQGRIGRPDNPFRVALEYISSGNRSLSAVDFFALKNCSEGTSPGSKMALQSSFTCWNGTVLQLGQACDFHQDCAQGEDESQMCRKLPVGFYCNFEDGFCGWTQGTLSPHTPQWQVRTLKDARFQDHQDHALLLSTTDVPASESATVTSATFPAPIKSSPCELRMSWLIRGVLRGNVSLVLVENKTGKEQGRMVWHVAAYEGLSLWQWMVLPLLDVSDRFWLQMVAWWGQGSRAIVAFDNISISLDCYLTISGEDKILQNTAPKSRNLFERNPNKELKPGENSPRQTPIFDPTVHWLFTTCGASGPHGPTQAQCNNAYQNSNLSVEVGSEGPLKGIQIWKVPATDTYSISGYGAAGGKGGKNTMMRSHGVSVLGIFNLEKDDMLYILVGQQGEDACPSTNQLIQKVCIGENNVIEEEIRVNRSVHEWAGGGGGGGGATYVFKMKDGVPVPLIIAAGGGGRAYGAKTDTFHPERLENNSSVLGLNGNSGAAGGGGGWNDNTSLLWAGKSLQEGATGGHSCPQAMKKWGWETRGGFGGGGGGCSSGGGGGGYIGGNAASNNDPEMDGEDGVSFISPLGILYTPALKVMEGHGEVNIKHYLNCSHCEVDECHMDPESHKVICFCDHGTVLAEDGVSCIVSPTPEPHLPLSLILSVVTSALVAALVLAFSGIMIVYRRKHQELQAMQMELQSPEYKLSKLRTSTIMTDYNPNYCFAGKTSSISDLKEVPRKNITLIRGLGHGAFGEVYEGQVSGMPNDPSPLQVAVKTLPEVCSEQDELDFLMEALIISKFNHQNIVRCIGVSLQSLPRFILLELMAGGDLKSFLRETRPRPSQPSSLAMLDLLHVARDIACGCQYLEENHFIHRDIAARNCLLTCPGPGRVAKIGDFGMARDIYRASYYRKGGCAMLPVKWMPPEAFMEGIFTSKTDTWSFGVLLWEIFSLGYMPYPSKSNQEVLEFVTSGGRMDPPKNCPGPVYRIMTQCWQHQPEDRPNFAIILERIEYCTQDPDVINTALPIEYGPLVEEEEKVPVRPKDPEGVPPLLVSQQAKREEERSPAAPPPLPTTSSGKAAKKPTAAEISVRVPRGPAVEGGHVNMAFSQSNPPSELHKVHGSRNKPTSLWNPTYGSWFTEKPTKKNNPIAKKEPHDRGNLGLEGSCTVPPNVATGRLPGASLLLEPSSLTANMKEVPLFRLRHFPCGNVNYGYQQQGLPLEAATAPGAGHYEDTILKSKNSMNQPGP
- protocol description: Inhibition of wild type human recombinant ALK using TK substrate-biotin incubated for 30 mins by HTRF assay
value kind: IC50

>  <compound>
Cc1cc(Nc2ncc(Cl)c(Nc3cn(C)nc3S(=O)(=O)C(C)C)n2)c(OC(C)C)cc1C1CN(C)C1

>  <value kind>
IC50

>  <obs value>
2 nM

$$$$
>  <compound>
Cc1cc(Nc2ncc(Cl)c(Nc3cn(C)nc3S(=O)(=O)C(C)C)n2)c(OC(C)C)cc1C1CCNCC1

>  <value kind>
IC50

>  <obs value>
8 nM

$$$$
>  <compound>
Cc1cc(Nc2ncc(Cl)c(Nc3cn(C)nc3S(=O)(=O)C(C)C)n2)c(OC2CC2)cc1C1CCN(C(=O)C(C)C)CC1

>  <value kind>
IC50

>  <obs value>
26 nM

$$$$
>  <compound>
CCNC(=O)N1CCC(c2cc(OC3CC3)c(Nc3ncc(Cl)c(Nc4cn(C)nc4S(=O)(=O)C(C)C)n3)cc2C)CC1

>  <value kind>
IC50

>  <obs value>
4 nM

$$$$
>  <compound>
Cc1cc(Nc2ncc(Cl)c(Nc3cn(C)nc3S(=O)(=O)C(C)C)n2)c(OC2CC2)cc1C1CCCN(C)C1 (stereo not given)

>  <value kind>
IC50

>  <obs value>
3 nM

$$$$
